Target: human Nav1.1 (Homo sapiens, UniProt P35498)
Construct: host or cells: HEK293
Assay: Amplification of Nav1.1-derived voltage-gated sodium current (Nav1.1 current), automated patch clamp (Test 1)
Assay type: cell-based
Conditions: HEK293, Concentration for evaluation 10 μM; HEK293 cell line stably expressing human Nav1.1; read-out: Nav1.1 current amplification rate (%)
PARAMETER MEASURED: activation at 10 µM (%)

I: N#Cc1ccc(NC(=O)Cn2nc(N3CCCCC3)ccc2=O)cn1 [Example 110]
II: CC1CC2(C1)CN(c1cnc3cnn(CC(=O)Nc4ccc(C#N)nc4)c3n1)C2 [Example 749]
III: CN(c1cnc2cnn(CC(=O)N3Cc4ccc(Br)cc4C3)c2n1)C1CC2(CC2)C1 [Example 751]
Q. // ranking: key=activation at 10 µM, reverse=True Returns: the labels listed in the requested order.
A. III, II, I

A: O=C(Cn1nc(N2CCCCC2)ccc1=O)Nc1ccc(C(F)(F)F)nc1 [Example 104]
B: N#Cc1cncc(NC(=O)Cn2nc(N3CCCCC3)ccc2=O)c1 [Example 108]
C: CN(C)c1cc(N2CCC3(CCC3)C2)nn(CC(=O)Nc2ccn3ccnc3c2)c1=O [Example 210]
D: O=C(Cn1nc(N2CCCCC2)ccc1=O)Nc1ccnc(C(F)(F)F)c1 [Example 113]
Q. Rank by activation at 10 µM (largest to smallest). Returns: the labels listed in the requested order.
A. C, D, A, B

a: N#Cc1cc(NC(=O)Cn2nc(N3CCCCC3)ccc2=O)ccn1 [Example 116]
b: Cc1nc2cc(NC(=O)Cn3nc(N4CCCCC4)ccc3=O)ccc2o1 [Example 118]
c: CN(c1cnc2cnn(CC(=O)NCCc3ccccc3F)c2n1)C1CC2(CC2)C1 [Example 750]
Q. // smallest activation at 10 µM at index 0, largest at the end Returns: the labels listed in the requested order.
A. b, a, c
(b: 7%, a: 12%, c: 27%)

====

Biological target: human Nav1.1 (Homo sapiens)
Construct: host or cells: HEK293
Assay: Amplification of Nav1.1-derived voltage-gated sodium current (Nav1.1 current), automated patch clamp (Test 1)
Type: cell-based
Details: HEK293, Concentration for evaluation 3 μM; HEK293 cell line stably expressing human Nav1.1; read-out: Nav1.1 current amplification rate (%)
PARAMETER MEASURED: activation at 3 µM (%)

Q. Can you look up the measured activation at 3 µM of `Cc1nn(CC(=O)Nc2ccc3ncnn3c2)c2nc(N3CCC4(CCC4)C3)cnc12` for me?
A. 10

a: Cc1ncccc1N1CCN(C(=O)Cn2nc(C3=CCC(C)CC3)ccc2=O)CC1 (stereo not shown)
b: O=C(Cn1ncc2ncc(C3CCC3)nc21)Nc1ccn2ncnc2c1
c: Cc1nn(CC(=O)Nc2ccn3ncnc3c2)c2nc(N3CCC4(CCC4)C3)cnc12
Q. Rank by activation at 3 µM (largest to smallest). Returns: the labels listed in the requested order.
A. a, c, b

====

Biological target: human Nav1.1 (Homo sapiens)
Construct: host or cells: HEK293
Experiment: Amplification of Nav1.1-derived voltage-gated sodium current (Nav1.1 current), automated patch clamp (Test 1)
Format: cell-based
Conditions: HEK293, concentration for evaluation 0.3 μM; HEK293 stably expressing human Nav1.1; read-out: Nav1.1 current amplification rate (%)
PARAMETER MEASURED: activation at 0.3 µM (%)

Example results:
Q. Report activation at 0.3 µM for CN(c1ncc2cnn(CC(=O)N3CCc4c(-c5ccnnc5)cccc43)c2n1)C1CC1 [Example 838] tested on human Nav1.1 (Homo sapiens).
A. 122

Q. Report activation at 0.3 µM for CN(c1cnc2cnn(CC(=O)Nc3ccc4ncncc4c3)c2n1)C1CC2(CC2)C1 [Example 848] tested on human Nav1.1 (Homo sapiens).
A. 22

a: CN(c1ccc2cnn(CC(=O)N3CCc4c(C5CC5)cccc43)c2n1)C1CC1 [Example 887]
b: CN(c1ncc2cnn(CC(=O)Nc3cnc4cccnc4c3)c2n1)C1CCCC1 [Example 849]
Q. I'm curious, which of these has a smaller activation at 0.3 µM number: a or b ? // output: label of the selected item
A. b

Where these numbers come from: patent US20230109839A1
